The values you see were collected from patent US20260347364A1.

# target-of-assay: UniProt:P01116
# Sequence (P01116 1-188 isoform P01116-2): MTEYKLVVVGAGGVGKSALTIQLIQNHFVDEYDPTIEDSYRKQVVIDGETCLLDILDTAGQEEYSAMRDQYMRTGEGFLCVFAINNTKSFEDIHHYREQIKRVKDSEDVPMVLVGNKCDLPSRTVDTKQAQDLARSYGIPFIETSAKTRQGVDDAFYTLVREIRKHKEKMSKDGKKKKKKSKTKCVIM
pIC50: −log10 of the molar value.
Listed compounds paired with reported pIC50

{"compound": "CCc1c(F)ccc2cc(O)cc(-c3c(C)c4nc(OCC5(CF)COC5)nc(N5CCCn6nc(C(=O)N(C)C)cc6C5)c4c4cn(C)nc34)c12", "pIC50": "5.00 to 7.00"}
{"compound": "CCc1c(F)ccc2cc(O)cc(-c3cc4nc(OC[C@@]56CCCN5C[C@H](F)C6)nc(N5CCC(CO)CC5)c4c4cn(C)nc34)c12", "pIC50": "7.00 to 8.00"}
{"compound": "CCc1c(F)ccc2cc(O)cc(-c3cc4nc(OC[C@@]56CCCN5C[C@H](F)C6)nc(N5CCOCC(O)(C(F)(F)F)C5)c4c4cn(C)nc34)c12 (stereo partly drawn)", "pIC50": "7.00 to 8.00"}
{"compound": "C#Cc1c(F)ccc2cc(O)cc(-c3cc4nc(OC[C@@]56CCCN5C[C@H](F)C6)nc(N5CCCOCC5)c4c4cn(C)nc34)c12", "pIC50": "≥ 8.00"}
{"compound": "CCc1c(F)ccc2cc(O)cc(-c3cc4nc(OC[C@@]56CCCN5C[C@H](F)C6)nc(N5CCCOCC5)c4c4cn(C)nc34)c12", "pIC50": "≥ 8.00"}
{"compound": "CCc1c(F)ccc2cc(O)cc(-c3c(F)c4nc(OCC5(C#N)CCOC5)nc(N5CC6CCC(C5)N6)c4c4cn(C)nc34)c12 (stereo not drawn)", "pIC50": "5.00 to 7.00"}
{"compound": "CCc1c(F)ccc2cc(O)cc(-c3cc4nc(OCC56CCCN5CCC6)nc(N5CCCOCC5)c4c4cn(C)nc34)c12", "pIC50": "≥ 8.00"}
{"compound": "CCc1c(F)ccc2cc(O)cc(-c3c(F)c4nc(OCC5(CN(C)CC)CC5)nc(N5CCOCC(C)(O)C5)c4c4cn(C)nc34)c12 (stereo not drawn)", "pIC50": "≥ 8.00"}
{"compound": "CCc1c(F)ccc2cc(O)cc(-c3cc4nc(OCC5(CN6CCCC6)CC5)nc(N5CCCn6nc(C(=O)N(C)C)cc6C5)c4c4cn(C)nc34)c12", "pIC50": "7.00 to 8.00"}
{"compound": "CCc1c(F)ccc2cc(O)cc(-c3cc4nc(OC[C@@]56CCCN5C[C@H](F)C6)nc(N5C6CCC5CN(CCCO)C6)c4c4cn(C)nc34)c12", "pIC50": "5.00 to 7.00"}
{"compound": "CCc1c(F)ccc2cc(O)cc(-c3c(F)c4nc(OCC5(C)CC(O)CN5)nc(N5CCOCC(C)(O)C5)c4c4cn(C)nc34)c12 (stereo not drawn)", "pIC50": "≥ 8.00"}
{"compound": "CCc1c(F)ccc2cc(O)cc(-c3c(F)c4nc(OCC5(CN6CC(F)(F)C6)CC5)nc(N5CCOCC(C)(O)C5)c4c4cn(C)nc34)c12 (stereo not drawn)", "pIC50": "7.00 to 8.00"}
